These entries and their values trace back to BigSolDB 2.1.

- studyConditions: in methanol, 278.15 K
parameter: solubility (mole fraction)

In [3]: df
Out[3]:
           smilesrecord                   parameter  measuredvalue
0  COc1cccc(C(=O)O)c1OC  solubility (mole fraction)         0.0151

###

- studyConditions: in isopropanol, 283.15 K
parameter: solubility (mole fraction)

In [3]: df
Out[3]:
           smilesrecord  measuredvalue
0  COc1cccc(C(=O)O)c1OC         0.0106

###

- studyConditions: in water, 318.15 K
parameter: solubility (mole fraction)

>>> print(df.to_string())
           smilesrecord                   parameter  measuredvalue
0  COc1cccc(C(=O)O)c1OC  solubility (mole fraction)       0.000323
